B1: RSAD1 (parent)
chain: YCNFNKYIPRRLEEAAMQKCLVTE

- Variants of: B1
- ASSAY_INFO: protein stability index of a GFP-peptide fusion (GPS, HEK-293T) (PSI 1-6); higher = more stable;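 note: lentivirally expressed fusions sorted by FACS into six bins by GFP to DsRed ratio, PSI derived from sequencing read proportions per bin multiplied by bin number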
- CONDITION_LABEL: c terminus: a fixed tail appended

MUTATIONS	protein stability index
K19G	2.12
N5V	1.19
E14V	3.05
E24I	2.83
Y1Q	3.07
M17T	3.45
E24G	2.29
I8D	2.3
A15W	1.04
E24P	2.28
A15Q	2.24
E14W	1.96
P9I	2.85
M17N	2.11
L12F	2.15
M17R	1.71
C20I	3.05
I8E	2.03
E24R	2.32
F4G	2.66
A16T	2.39
V22W	2.23
N3C	1.95
A16S	2.56
E13N	3.29
Q18A	1.75
C2K	2.31
E13M	2.56
K6V	3.4
L21P	2.17
K6E	3.37
V22G	2.02
K6Y	3.05
K19L	3.06
Q18F	2.34
C2N	2.84
N5T	2.59
T23H	2.92
R10T	1.59
E24C	3.44
P9D	2.38
T23M	2.17
T23W	2.85
A15H	3.35
Y7H	2.68
N5H	2.31

Where do the numbers come from? From the supplement of paper PMC10567573.
